# Tested on: SK-MEL-2 melanoma
# Experimental Protocol: NCI-60 one-dose screen, 48 h (100 = growth as untreated, 0 = no growth, -100 = all killed)
# Run Parameters: 10 µM unless noted
This is part of a sample that, as a whole, favours compounds with a hit. Of some 83,000 tested, about 20% had one in any assay. Activity calls are given as the source filed them. Rule for the calls: active = growth percent below 10; inactive = the rest.
Readings of growth for the listed molecules
Outcome Measure: growth

[[record]]
molecule = "C=CCOc1cccc(/C=C2\\SC(=S)N(C3CC(=O)N(c4ccc(Br)cc4)C3=O)C2=O)c1 (stereo unspecified)"
outcome_measure = "growth"
measurement = "117% (inactive)"

[[record]]
molecule = "C=CCN(C)S(=O)(=O)/N=C1\\NC(=O)NC1=C(Cl)Cl"
outcome_measure = "growth"
measurement = "90% (inactive)"

[[record]]
molecule = "CC/C(=C/c1c(O)cccc1OC)c1ccc2c(OC)cccc2[o+]1"
outcome_measure = "growth"
measurement = "107% (inactive)"

[[record]]
molecule = "CC(=O)C1=C(C)NC(NNC(N)=S)=NC1c1ccccc1 (stereo unspecified)"
outcome_measure = "growth"
measurement = "96.9% (inactive)"

[[record]]
molecule = "Cc1cc(S(=O)(=O)N(C)C)cc(NCC(=O)NC(=O)NCC(C)C)c1C"
outcome_measure = "growth"
measurement = "105% (inactive)"

[[record]]
molecule = "N#Cc1c(NC(=O)c2cccc(C(F)(F)F)c2F)sc2c1CCC(=O)C2"
outcome_measure = "growth"
measurement = "5.28% (active)"

[[record]]
molecule = "C=C(C)[C@@H]1CC[C@]2(C(=O)NCCCCCN(CCC#N)CCC#N)CC[C@]3(C)[C@H](CC[C@@H]4[C@@]5(C)CCC(=O)C(C)(C)[C@@H]5CC[C@]43C)[C@@H]12"
outcome_measure = "growth"
measurement = "106% (inactive)"

[[record]]
molecule = "O=C(CSc1nc2ccccc2c(=O)n1-c1ccccc1)Nc1ccc(-c2nc3ccc([N+](=O)[O-])cc3[nH]2)cc1"
outcome_measure = "growth"
measurement = "89.5% (inactive)"

[[record]]
molecule = "NC(=O)c1cccc(C#CCNC[C@H]2C[C@@H](n3ccc4c(Cl)ncnc43)[C@H](O)[C@@H]2O)c1"
outcome_measure = "growth"
measurement = "104% (inactive)"

[[record]]
molecule = "COc1cccc(/C=C(/C)c2ccc3cccc(OC)c3[o+]2)c1O"
outcome_measure = "growth"
measurement = "106% (inactive)"

[[record]]
molecule = "CC(C)C[C@@H]1N[C@@]2(C(=O)Nc3ccccc32)[C@@H](c2ccc(F)cc2)[C@@H]1C(=O)c1ccc(O)cc1"
outcome_measure = "growth"
measurement = "102% (inactive)"

[[record]]
molecule = "COc1cc2oc(-c3cccc(NC(=O)c4cc(N)ccc4Cl)c3)cc(=O)c2c(OC)c1OC"
outcome_measure = "growth"
measurement = "110% (inactive)"

[[record]]
molecule = "CCOc1ccccc1NC1=C(Cl)C(=O)c2nc(C)ccc2C1=O"
outcome_measure = "growth"
measurement = "-15.7% (active)"

[[record]]
molecule = "O=C(CSc1nc2ccccc2c(=O)n1-c1ccc(Cl)cc1)N/N=C/c1ccc(N2CCCCC2)cc1"
outcome_measure = "growth"
measurement = "99.5% (inactive)"

[[record]]
molecule = "CCc1ccc(SC2c3ccc(N(CC)CC)cc3Oc3nc(N)c(C#N)c(N)c32)cc1 (stereo unspecified)"
outcome_measure = "growth"
measurement = "-48.2% (active)"

[[record]]
molecule = "C=CCn1c(SCC(=O)Nc2ccc(C(=O)/C=C/c3cc(OC)c(OC)c(OC)c3)cc2)nnc1-c1c[nH]c2ccccc12"
outcome_measure = "growth"
measurement = "101% (inactive)"

[[record]]
molecule = "O=C(O)c1ccc(-n2cc(CNc3cccc(Cl)c3)c(-c3ccc(F)cc3)n2)cc1"
outcome_measure = "growth"
measurement = "96.1% (inactive)"

[[record]]
molecule = "O=C(Nc1ccc(Br)cc1)Nc1nc2ccc([N+](=O)[O-])cc2s1"
outcome_measure = "growth"
measurement = "-22.7% (active)"

[[record]]
molecule = "COc1cc(OC)cc(C(=O)Nc2cccc(C#Cc3cccc4[nH]nc(N)c34)c2)c1"
outcome_measure = "growth"
measurement = "-24.2% (active)"

[[record]]
molecule = "CC[C@H](CO)Nc1ccc2ncc(C#Cc3cncc(C(=O)Nc4ccc(CN5CCN(C)CC5)c(C(F)(F)F)c4)c3)n2n1"
outcome_measure = "growth"
measurement = "-97.7% (active)"

[[record]]
molecule = "O=C1[C@H]2Cc3c([nH]c4ccccc34)[C@@H](c3ccc(Cl)cc3)N2C(=O)CN1C1CCN(Cc2ccccc2)CC1"
outcome_measure = "growth"
measurement = "84.7% (inactive)"

[[record]]
molecule = "COc1ccc(Cn2cc3c(c2-c2cc(OC)c(OC)c(OC)c2)CCc2c(CN4CCOCC4)noc2-3)cc1"
outcome_measure = "growth"
measurement = "62.4% (inactive)"

[[record]]
molecule = "Cn1ccnc1C(=O)/C=C/c1ccc(CNC(=O)c2c(F)c(F)c(F)c(F)c2F)cc1"
outcome_measure = "growth"
measurement = "99.4% (inactive)"

[[record]]
molecule = "COc1c(N2CC3CCCNC3C2)c(F)cc2c(=O)c(C(=O)N/N=C/c3ccc(Br)cc3)cn(C3CC3)c12 (stereo unspecified)"
outcome_measure = "growth"
measurement = "100% (inactive)"

[[record]]
molecule = "CCCCCCCn1cc2c(N[C@H](C)c3ccccc3)ncnc2n1"
outcome_measure = "growth"
measurement = "123% (inactive)"

[[record]]
molecule = "CCOC(=O)C(=O)/C(=C\\c1ccc(Cl)cc1)C(=O)N1C(=S)NC(=O)C1CC(C)C (stereo unspecified)"
outcome_measure = "growth"
measurement = "112% (inactive)"

[[record]]
molecule = "C[C@H](CCC(=O)NCc1ccc(C(=O)Nc2ccccc2N)cc1)[C@H]1CC[C@H]2[C@@H]3[C@@H](O)C[C@@H]4C[C@H](O)CC[C@]4(C)[C@H]3CC[C@]12C"
outcome_measure = "growth"
measurement = "68.8% (inactive)"

[[record]]
molecule = "CC(C)(C)n1cc(-c2ccnc(NCCCNS(=O)(=O)c3cccc(F)c3)n2)c(-c2ccc(Cl)c(O)c2)n1"
outcome_measure = "growth"
measurement = "98.4% (inactive)"

[[record]]
molecule = "CNC(=O)c1c(NC(=O)c2cccc(C(F)(F)F)c2F)sc2c1CCC(=O)C2"
outcome_measure = "growth"
measurement = "8.04% (active)"

[[record]]
molecule = "NC(N)=Nc1ccc(Oc2cccc(NC(N)=Nc3ccc(I)cc3F)c2)cn1"
outcome_measure = "growth"
measurement = "86.8% (inactive)"

[[record]]
molecule = "CCn1c(SCC(=O)Nc2cccc(C(=O)/C=C/c3cc(OC)c(OC)c(OC)c3)c2)nc2ccccc2c1=O"
outcome_measure = "growth"
measurement = "109% (inactive)"

[[record]]
molecule = "Cc1ccc(C2=NN(C)C(=O)C3(CCCC3)C2)cc1"
outcome_measure = "growth"
measurement = "110% (inactive)"

[[record]]
molecule = "COc1ccc(CCOc2cc3c(cc2OC)CCN(C(=O)NCc2cocn2)C3c2ccc(C)cc2C)cc1 (stereo unspecified)"
outcome_measure = "growth"
measurement = "-7.32% (active)"

[[record]]
molecule = "O=C(Nc1nc2ccc([N+](=O)[O-])cc2s1)Nc1ccccc1Br"
outcome_measure = "growth"
measurement = "48.1% (inactive)"

[[record]]
molecule = "C#Cc1nc(C(C)=O)cs1"
outcome_measure = "growth"
measurement = "111% (inactive)"

[[record]]
molecule = "CC(=O)O[C@@H]1C(=O)N(c2cnccn2)[C@H]1c1ccccc1[N+](=O)[O-]"
outcome_measure = "growth"
measurement = "10.6% (inactive)"


Taken from PubChem BioAssay (NCI).
